System: KK-Ay male mice
Test: Blood sugar and blood triglyceride (TG) lowering test in KK-Ay mice, test compound mixed with powder food
Assay type: in vivo
Details: KK-Ay male mice; mixed with powder food for four days; Dose: c.a. 10 mg/kg/day; plasma triglyceride (glycerol enzyme method) on 5th day vs control group
Marks after values point to notes of the source that are not given here.
Listed below: TG lowering ratio (%) values for each entry.

O=C1NC(=O)C(Cc2ccc3cc(OCc4ccccc4F)ccc3c2)S1 (stereo not drawn) [Example 4]
41.6* %

## Task # input compound: O=C1NC(=O)C(Cc2ccc3cc(OCc4ccccc4)ccc3c2)S1 (stereo not drawn) [Example 2] ; wanted: its TG lowering ratio (%)
## Result 9.1* %

## Task # input compound: O=C1NC(=O)C(Cc2ccc3cc(OCc4ccc(F)cc4)ccc3c2)S1 (stereo not drawn) [Example 6] ; wanted: its TG lowering ratio (%)
## Result 37.7* %
